Property: community biomass OD578; scope: individual molecules
# Test system: Com21 synthetic gut community
# METHOD: community biomass OD578 after 24 h drug treatment relative to untreated (fraction of untreated control); higher = more community growth
# SETUP CONDITIONS: drug pretreatment concentration 2.5 µM; community: Com21 (Com20 + E. coli ED1a)
Simply state the number, no unit and no words.

*Q* Given the molecule CCOC(=O)C1=C(C)NC(C)=C(C(=O)OCC)C1c1ccccc1/C=C/C(=O)OC(C)(C)C , write its reported community biomass OD578.
*A* 1.01

*Q* Using the record for CC/C(=C(\c1ccccc1)c1ccc(OCCN(C)C)cc1)c1ccccc1 , state its measured community biomass OD578.
*A* 1

*Q* Kindly indicate its recorded community biomass OD578. Item: CCOC(=O)N1CCC(=C2c3ccc(Cl)cc3CCc3cccnc32)CC1
*A* 1

*Q* Give reported community biomass OD578 value for C/C=C(/C(=C/C)c1ccc(O)cc1)c1ccc(O)cc1
*A* 0.981

*Q* Specify reported community biomass OD578 for the molecule shown: N[C@@H](Cc1cc(I)c(Oc2cc(I)c(O)c(I)c2)c(I)c1)C(=O)O
*A* 0.996

*Q* Identify measured community biomass OD578 corresponding to Nc1nc(=S)c2ncn([C@@H]3O[C@H](CO)[C@@H](O)[C@H]3O)c2[nH]1
*A* 1.01

----------
# System: Com21 synthetic gut community
# METHOD: community biomass OD578 after 24 h drug treatment relative to untreated (fraction of untreated control); higher = more community growth
# SETUP CONDITIONS: drug pretreatment concentration 20 µM; community: Com21 (Com20 + E. coli ED1a)
ASSAY ENDPOINT: community biomass OD578
Simply state the number, no unit and no words.

Sample records with community biomass OD578:
{"columns": ["COMPOUND", "community biomass OD578"],
 "data": [
  ["CNCCCC1c2ccccc2C=Cc2ccccc21 [Protriptyline]", 1.02],
  ["CCCc1nc2c(C)cc(-c3nc4ccccc4n3C)cc2n1Cc1ccc(-c2ccccc2C(=O)O)cc1 [Telmisartan]", 0.966],
  ["CC(CN1c2ccccc2Sc2ccccc21)N(C)C (stereo unspecified) [Promethazine]", 1.01],
  ["O=C(Nc1ccc([N+](=O)[O-])cc1Cl)c1cc(Cl)ccc1O [Niclosamide]", 0.901],
  ["CCc1oc2ccccc2c1C(=O)c1cc(Br)c(O)c(Br)c1 [Benzbromarone]", 0.86]
]}

*Q* Hello, please tell me recorded community biomass OD578 for this one: COc1ccc2[nH]c([S+]([O-])Cc3ncc(C)c(OC)c3C)nc2c1 (stereo unspecified) [Omeprazole]
*A* 0.997

----------
# Test system: Clostridium bolteae
# METHOD: IC25 growth inhibition; higher = less potent
Attribute: IC25 growth inhibition

{"columns": ["COMPOUND", "ASSAY ENDPOINT", "RESULT"],
 "data": [
  ["CCCc1nc2c(C)cc(-c3nc4ccccc4n3C)cc2n1Cc1ccc(-c2ccccc2C(=O)O)cc1", "IC25 growth inhibition", "> 80 µM"],
  ["OC(Cn1cncn1)(Cn1cncn1)c1ccc(F)cc1F", "IC25 growth inhibition", "> 160 µM"],
  ["CO[C@@H]1[C@@H](OC(N)=O)[C@@H](O)[C@H](Oc2ccc3c(O)c(NC(=O)c4ccc(O)c(CC=C(C)C)c4)c(=O)oc3c2C)OC1(C)C", "IC25 growth inhibition", "< 1.25 µM"],
  ["CC[C@H]1OC(=O)[C@H](C)[C@@H](O[C@H]2C[C@@](C)(OC)[C@@H](O)[C@H](C)O2)[C@H](C)[C@@H](O[C@@H]2O[C@H](C)C[C@H](N(C)C)[C@H]2O)[C@](C)(O)C[C@@H](C)C(=O)[C@H](C)[C@@H](O)[C@]1(C)O", "IC25 growth inhibition", "≤ 2.5 µM"],
  ["CC[C@H]1OC(=O)[C@H](C)[C@@H](O[C@H]2C[C@@](C)(OC)[C@@H](O)[C@H](C)O2)[C@H](C)[C@@H](O[C@@H]2O[C@H](C)C[C@H](N(C)C)[C@H]2O)[C@](C)(OC)C[C@@H](C)C(=O)[C@H](C)[C@@H](O)[C@]1(C)O", "IC25 growth inhibition", "< 1.25 µM"]
]}

*Q* Given CCN(CC)C(C)CN1c2ccccc2Sc2ccccc21 (centres undefined) , respond with its IC25 growth inhibition.
*A* > 80 µM

*Q* Input CCN(CC)CCOc1ccc(C(=C(Cl)c2ccccc2)c2ccccc2)cc1 , output reported IC25 growth inhibition.
*A* ≤ 80 µM

*Q* State its IC25 growth inhibition for this compound: CC(=O)N1CCN(c2ccc(OCC3COC(Cn4ccnc4)(c4ccc(Cl)cc4Cl)O3)cc2)CC1 (centres undefined)
*A* > 160 µM

*Q* Input O=c1oc2ccccc2c(O)c1Cc1c(O)c2ccccc2oc1=O , output reported IC25 growth inhibition.
*A* > 80 µM

----------
# Tested on: Clostridium bolteae
# METHOD: IC25 growth inhibition; higher = less potent
Form field: IC25 growth inhibition (one value per entry).

The cases that follow already have their IC25 growth inhibition on record.
{"columns": ["COMPOUND", "IC25 growth inhibition"],
 "data": [
  ["N[C@@H](Cc1cc(I)c(Oc2cc(I)c(O)c(I)c2)c(I)c1)C(=O)O", "> 160 µM"],
  ["CCOC(=O)N1CCC(=C2c3ccc(Cl)cc3CCc3cccnc32)CC1", "> 160 µM"],
  ["Clc1ccc(Cn2c(CN3CCCC3)nc3ccccc32)cc1", "> 160 µM"],
  ["CN1CCN(C2=Nc3ccccc3Oc3ccc(Cl)cc32)CC1", "> 160 µM"],
  ["C[C@H]1c2cccc(O)c2C(=O)C2=C(O)[C@]3(O)C(=O)C(C(N)=O)=C(O)[C@@H](N(C)C)[C@@H]3[C@@H](O)[C@@H]21", "< 1.25 µM"],
  ["CCOC1O[C@H]([C@@H](COCc2ccccc2)OCc2ccccc2)[C@H](OCc2ccccc2)[C@H]1O (stereo partly specified) [Tribenoside]", "> 80 µM"],
  ["O=C1NCCN1CCN1CCC(c2cn(-c3ccc(F)cc3)c3ccc(Cl)cc23)CC1", "≤ 80 µM"],
  ["CNCCC(Oc1ccc(C(F)(F)F)cc1)c1ccccc1 (stereo unspecified)", "> 160 µM"],
  ["O=c1[nH]c(=O)n([C@H]2C[C@H](O)[C@@H](CO)O2)cc1F", "≤ 80 µM"],
  ["Cc1c(OCC(F)(F)F)ccnc1C[S+]([O-])c1nc2ccccc2[nH]1 (stereo unspecified)", "> 160 µM"]
]}

*Q* Specify reported IC25 growth inhibition for the compound shown: Clc1ccccc1C(c1ccccc1)(c1ccccc1)n1ccnc1
*A* ≤ 80 µM

----------
# Test system: Com21 synthetic gut community
# METHOD: community biomass OD578 after 24 h drug treatment relative to untreated (fraction of untreated control); higher = more community growth
# SETUP CONDITIONS: drug pretreatment concentration 160 µM; community: Com21 (Com20 + E. coli ED1a)
ASSAY ENDPOINT: community biomass OD578

See these solved cases before continuing.
{"columns": ["COMPOUND", "ASSAY ENDPOINT", "RESULT"],
 "data": [
  ["CCN(CC)C(C)CN1c2ccccc2Sc2ccccc21 (centres undefined)", "community biomass OD578", 0.97],
  ["Cc1c(OCC(F)(F)F)ccnc1C[S+]([O-])c1nc2ccccc2[nH]1 (centres undefined)", "community biomass OD578", 0.926],
  ["CN(N=O)C(=O)N[C@@H](C=O)[C@@H](O)[C@H](O)[C@H](O)CO", "community biomass OD578", 0.889]
]}

Turning to the following compound.
*Q* Check Com21 synthetic gut community data and give community biomass OD578 for O=C(Nc1ccc([N+](=O)[O-])cc1Cl)c1cc(Cl)ccc1O [Niclosamide] .
*A* 0.811

----------
# Tested on: Bacteroides uniformis
# METHOD: IC25 growth inhibition; higher = less potent
ASSAY ENDPOINT: IC25 growth inhibition

{"columns": ["MOL", "IC25 growth inhibition"],
 "data": [
  ["C[C@]1(Cn2ccnn2)[C@H](C(=O)O)N2C(=O)C[C@H]2S1(=O)=O", "≤ 5 µM"]
]}

*Q* Indicate the recorded IC25 growth inhibition value for this molecule: CCOC(=O)N1CCC(=C2c3ccc(Cl)cc3CCc3cccnc32)CC1
*A* > 160 µM

*Q* Give the value of IC25 growth inhibition reported for the following: CC/C(=C(\c1ccccc1)c1ccc(OCCN(C)C)cc1)c1ccccc1
*A* ≤ 40 µM

*Q* Assign IC25 growth inhibition to the following record: CC(C)(O)c1ccccc1CC[C@@H](SCC1(CC(=O)O)CC1)c1cccc(/C=C/c2ccc3ccc(Cl)cc3n2)c1
*A* > 80 µM

----------
# community biomass OD578 per record follows
# Test system: Com21 synthetic gut community
# METHOD: community biomass OD578 after 24 h drug treatment relative to untreated (fraction of untreated control); higher = more community growth
# SETUP CONDITIONS: drug pretreatment concentration 20 µM; community: Com21 (Com20 + E. coli ED1a)
Give a plain numeric answer without units written out.

A selection of reference data follows.
{"columns": ["COMPOUND", "ASSAY ENDPOINT", "NUMERIC RESULT"],
 "data": [
  ["CCN(CC)C(C)CN1c2ccccc2Sc2ccccc21 (stereo not given)", "community biomass OD578", 0.995],
  ["C[C@]1(Cn2ccnn2)[C@H](C(=O)O)N2C(=O)C[C@H]2S1(=O)=O", "community biomass OD578", 0.79]
]}

*Q* Identify measured community biomass OD578 corresponding to Clc1ccc(COC(Cn2ccnc2)c2ccc(Cl)cc2Cl)c(Cl)c1 (stereo not given)
*A* 0.969

*Q* For CC(=O)Oc1cccc2c1C(=O)c1c(OC(C)=O)cc(C(=O)O)cc1C2=O , write its community biomass OD578.
*A* 0.913

*Q* Give the measured community biomass OD578 for O=c1[nH]c(=O)n([C@H]2C[C@H](O)[C@@H](CO)O2)cc1F
*A* 0.907
